Target: UniProt:P00698
Sequence (P00698 19-147): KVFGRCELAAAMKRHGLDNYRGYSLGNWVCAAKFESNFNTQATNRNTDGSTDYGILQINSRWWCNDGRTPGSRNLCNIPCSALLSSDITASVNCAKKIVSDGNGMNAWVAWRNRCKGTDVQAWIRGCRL
metric: Kd (nM)
Could you give me the number in nM? Just the number is fine.

Tell me its Kd given O=S(=O)(O)CCCSc1nc2ccccc2s1 as the entry.
2620
